Data provenance: patent US20120114557A1

# tested_on: human collagen type I (human) (UniProt P02452)
# Sequence (P02452 162-1218 limits assumed, chain 1 of 2): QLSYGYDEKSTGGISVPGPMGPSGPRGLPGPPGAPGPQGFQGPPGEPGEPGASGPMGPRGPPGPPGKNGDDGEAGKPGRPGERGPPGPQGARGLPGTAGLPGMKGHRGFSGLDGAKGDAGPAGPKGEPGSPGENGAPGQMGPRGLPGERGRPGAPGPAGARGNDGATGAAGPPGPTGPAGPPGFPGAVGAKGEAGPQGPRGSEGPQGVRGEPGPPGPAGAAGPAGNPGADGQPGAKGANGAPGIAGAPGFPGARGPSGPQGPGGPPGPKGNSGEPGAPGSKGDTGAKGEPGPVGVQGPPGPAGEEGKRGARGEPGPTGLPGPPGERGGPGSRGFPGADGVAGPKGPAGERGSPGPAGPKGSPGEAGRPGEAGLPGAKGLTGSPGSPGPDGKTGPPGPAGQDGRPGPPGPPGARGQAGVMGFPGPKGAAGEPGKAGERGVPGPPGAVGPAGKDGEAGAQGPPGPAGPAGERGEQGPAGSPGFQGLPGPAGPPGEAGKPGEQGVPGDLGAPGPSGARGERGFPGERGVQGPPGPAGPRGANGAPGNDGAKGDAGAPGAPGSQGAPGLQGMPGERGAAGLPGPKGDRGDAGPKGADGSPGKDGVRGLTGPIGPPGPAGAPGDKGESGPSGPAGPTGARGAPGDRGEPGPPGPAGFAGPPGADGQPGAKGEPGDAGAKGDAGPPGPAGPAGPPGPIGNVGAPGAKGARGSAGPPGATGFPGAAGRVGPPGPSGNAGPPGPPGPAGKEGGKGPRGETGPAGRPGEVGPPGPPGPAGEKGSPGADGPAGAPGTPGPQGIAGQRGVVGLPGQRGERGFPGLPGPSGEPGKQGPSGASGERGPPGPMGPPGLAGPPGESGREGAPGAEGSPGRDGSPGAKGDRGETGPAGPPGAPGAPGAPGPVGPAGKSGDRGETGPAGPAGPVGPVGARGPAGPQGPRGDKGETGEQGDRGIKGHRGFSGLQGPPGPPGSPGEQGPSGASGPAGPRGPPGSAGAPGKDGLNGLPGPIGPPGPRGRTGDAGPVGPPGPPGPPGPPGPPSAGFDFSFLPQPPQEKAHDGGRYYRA
# Sequence (P08123 80-1119 limits assumed, chain 2 of 2, further chain): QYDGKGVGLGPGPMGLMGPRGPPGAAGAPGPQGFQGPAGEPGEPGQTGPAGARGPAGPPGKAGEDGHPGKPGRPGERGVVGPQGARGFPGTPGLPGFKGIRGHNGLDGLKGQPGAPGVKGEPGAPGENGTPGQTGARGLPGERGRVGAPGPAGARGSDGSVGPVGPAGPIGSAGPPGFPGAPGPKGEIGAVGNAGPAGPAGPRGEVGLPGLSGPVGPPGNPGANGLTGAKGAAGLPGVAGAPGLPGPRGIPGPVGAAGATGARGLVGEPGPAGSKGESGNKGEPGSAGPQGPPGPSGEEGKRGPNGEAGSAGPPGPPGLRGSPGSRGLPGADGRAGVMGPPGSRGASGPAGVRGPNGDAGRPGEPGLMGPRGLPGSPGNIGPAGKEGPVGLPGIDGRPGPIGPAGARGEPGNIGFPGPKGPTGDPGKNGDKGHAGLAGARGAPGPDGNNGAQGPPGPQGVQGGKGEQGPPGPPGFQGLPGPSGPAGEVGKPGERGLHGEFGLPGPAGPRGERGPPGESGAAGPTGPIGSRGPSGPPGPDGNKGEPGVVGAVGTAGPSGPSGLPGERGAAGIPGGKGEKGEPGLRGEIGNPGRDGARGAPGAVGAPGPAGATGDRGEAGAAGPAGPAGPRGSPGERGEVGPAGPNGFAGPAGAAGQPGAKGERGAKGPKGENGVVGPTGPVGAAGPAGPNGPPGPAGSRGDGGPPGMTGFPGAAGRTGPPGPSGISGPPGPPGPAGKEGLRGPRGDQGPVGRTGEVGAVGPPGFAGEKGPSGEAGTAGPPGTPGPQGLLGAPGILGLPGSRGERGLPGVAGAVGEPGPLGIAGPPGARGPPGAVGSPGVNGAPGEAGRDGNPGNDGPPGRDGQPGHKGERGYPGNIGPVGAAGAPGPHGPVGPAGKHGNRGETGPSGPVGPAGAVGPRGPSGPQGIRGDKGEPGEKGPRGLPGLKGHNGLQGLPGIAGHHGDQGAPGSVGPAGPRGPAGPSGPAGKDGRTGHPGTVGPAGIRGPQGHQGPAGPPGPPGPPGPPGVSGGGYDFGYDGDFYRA
# procedure_summary: dried collagen assay, 5 uM peptide
Bridge positions count the residues as written; N and C are the ends. Square brackets hold non-standard residues; d marks the D form. Ends that are not written are not given here.
measured_metric: % Collagen Binding, Dried Human (%)

a = GQWTCSGDEYTW[dH]CNYE (disulfide 5-14 (inferred); not fully specified (C-terminus)) [SEQ ID NO: 174]
b = GQ[dW]TCSGDEYTWHCNYE (disulfide 5-14 (inferred)) [SEQ ID NO: 165]
c = YHACYQ[dA]GCWIW (disulfide 4-9 (inferred)) [SEQ ID NO: 158]
Which order do these items take when sorted by rising % Collagen Binding, Dried Human? List them. Returns: the labels arranged in the requested order.
b, a, c
